molecular target: Serine/threonine-protein kinase SIK2 (Homo sapiens)
Sequence (Q9H0K1 whole entry): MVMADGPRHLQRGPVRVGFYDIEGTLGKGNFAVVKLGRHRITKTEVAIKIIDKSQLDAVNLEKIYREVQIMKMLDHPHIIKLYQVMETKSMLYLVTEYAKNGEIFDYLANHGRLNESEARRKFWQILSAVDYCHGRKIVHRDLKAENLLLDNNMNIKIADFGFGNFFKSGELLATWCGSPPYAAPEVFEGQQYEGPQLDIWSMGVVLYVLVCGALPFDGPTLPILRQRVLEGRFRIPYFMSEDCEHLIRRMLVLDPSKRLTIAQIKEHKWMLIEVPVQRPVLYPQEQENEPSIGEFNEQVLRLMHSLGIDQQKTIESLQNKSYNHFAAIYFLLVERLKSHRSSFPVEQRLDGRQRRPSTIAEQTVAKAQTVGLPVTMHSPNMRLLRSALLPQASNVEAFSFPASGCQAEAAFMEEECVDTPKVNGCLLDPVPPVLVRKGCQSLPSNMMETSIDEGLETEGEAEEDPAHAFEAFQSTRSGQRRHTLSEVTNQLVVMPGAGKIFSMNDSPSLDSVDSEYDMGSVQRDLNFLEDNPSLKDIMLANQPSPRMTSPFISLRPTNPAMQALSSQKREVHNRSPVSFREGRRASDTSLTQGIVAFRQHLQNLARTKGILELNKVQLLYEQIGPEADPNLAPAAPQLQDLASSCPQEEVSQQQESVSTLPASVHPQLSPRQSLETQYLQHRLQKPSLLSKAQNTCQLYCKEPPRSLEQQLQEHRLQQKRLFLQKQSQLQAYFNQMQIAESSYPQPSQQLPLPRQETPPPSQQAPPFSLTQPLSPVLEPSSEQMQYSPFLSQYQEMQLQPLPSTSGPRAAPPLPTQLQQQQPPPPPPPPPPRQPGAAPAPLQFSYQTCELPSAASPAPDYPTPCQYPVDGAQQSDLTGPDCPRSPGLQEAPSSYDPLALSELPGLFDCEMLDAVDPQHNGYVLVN
MEASUREMENT_LABEL: pIC50
One number for each entry, as −log10 of the molar value.

Give pIC50 for N#Cc1ccc(-n2cnc3cc(C(=O)NCc4cccnc4)ccc32)cc1
6.83
